Target Under Test: Protein Mdm4 (Homo sapiens) + E3 ubiquitin-protein ligase Mdm2 (Homo sapiens) (UniProt O15151+Q00987)
Sequence (O15151 whole entry, looked up): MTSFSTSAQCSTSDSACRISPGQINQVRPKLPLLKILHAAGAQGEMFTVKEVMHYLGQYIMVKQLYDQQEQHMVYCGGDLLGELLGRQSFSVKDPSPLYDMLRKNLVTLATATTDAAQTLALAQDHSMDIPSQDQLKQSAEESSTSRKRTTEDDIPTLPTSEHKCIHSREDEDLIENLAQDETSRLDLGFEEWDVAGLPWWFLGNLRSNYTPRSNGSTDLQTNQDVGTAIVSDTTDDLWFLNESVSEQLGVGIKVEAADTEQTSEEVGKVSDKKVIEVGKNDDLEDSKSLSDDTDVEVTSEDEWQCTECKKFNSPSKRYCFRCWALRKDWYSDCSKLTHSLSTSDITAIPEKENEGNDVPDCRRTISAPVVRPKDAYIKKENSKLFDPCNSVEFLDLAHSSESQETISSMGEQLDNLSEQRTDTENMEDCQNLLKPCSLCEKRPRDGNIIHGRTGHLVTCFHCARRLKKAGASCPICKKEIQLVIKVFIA
Sequence (Q00987 whole entry, looked up): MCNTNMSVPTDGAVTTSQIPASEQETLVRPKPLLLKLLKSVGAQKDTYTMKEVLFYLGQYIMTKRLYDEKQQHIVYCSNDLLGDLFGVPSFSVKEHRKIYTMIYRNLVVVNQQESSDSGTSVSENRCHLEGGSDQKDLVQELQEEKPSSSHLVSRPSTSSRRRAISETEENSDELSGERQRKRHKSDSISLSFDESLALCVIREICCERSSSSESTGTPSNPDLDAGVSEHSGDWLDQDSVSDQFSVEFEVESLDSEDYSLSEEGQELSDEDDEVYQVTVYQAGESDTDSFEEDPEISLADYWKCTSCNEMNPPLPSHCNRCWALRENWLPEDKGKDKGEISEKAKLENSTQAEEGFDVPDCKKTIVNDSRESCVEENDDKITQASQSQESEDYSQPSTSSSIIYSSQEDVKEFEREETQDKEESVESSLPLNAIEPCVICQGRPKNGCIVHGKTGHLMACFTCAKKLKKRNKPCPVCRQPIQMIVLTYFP
Test Details: Mdm2-MdmX complex disruptors, retested hits, confirmation, luminescence, single concentration (AID 489028)
Experimental Context: Mdm2-MdmX binding, luminescent assay; at 8 µM
Out of some 10,000 compounds screened, about 5,600 (56%) were called active. Rule as the data show it: active = inhibition above about 40%; inactive = the rest. So high a share suggests a set chosen from earlier hits. Not all results are given here.
Pick one and only one: active, inactive

Query block: Hi, do you know how CSc1nc(N)c(C#N)c(-c2ccccc2Cl)c1C#N came out in this test?
Result block: inactive

Query block: Hi, do you know how Cc1cc(C)cc(NC(=O)Cn2cnc3c(nnn3Cc3ccc(F)cc3)c2=O)c1 came out in this test?
Result block: inactive

Query block: Hi, do you know how O=C(/C=C/c1ccccc1)Nc1nnc(SCC(=O)c2ccc3ccccc3c2)s1 came out in this test?
Result block: inactive

Query block: Hi, do you know how CCN1CCN(CCNC(=O)c2ccc(/C=C3/Sc4ccccc4N(Cc4cccc(C)c4)C3=O)cc2)CC1 came out in this test?
Result block: active

Query block: Hi, do you know how Cc1ccccc1NC(=O)CSc1nc2ccc(Nc3nc(N4CCOCC4)nc(N4CCOCC4)n3)cc2s1 came out in this test?
Result block: inactive

Query block: Hi, do you know how CCCC(O)(CCC)C(=O)NN(C(=O)CCl)c1cccc(C)c1 came out in this test?
Result block: active

Query block: Hi, do you know how COC(=O)C1=CN(C)C=C(C(=O)OC)C1c1ccc(Cl)cc1Cl came out in this test?
Result block: inactive

Query block: Hi, do you know how COc1ccc2c(c1OC)C(=O)OC2Nc1nc(-c2ccccc2)cs1 (stereo unspecified) came out in this test?
Result block: active

Query block: Hi, do you know how CCOC(=O)CC1C(=O)NCCN1c1nc2c(C)cccn2c(=O)c1/C=C1\SC(=S)N(C(C)CC)C1=O (stereo unspecified) came out in this test?
Result block: active

Query block: Hi, do you know how Cc1nc(/N=C(\N)NC(=O)NC2CCCCC2)nc2ccccc12 came out in this test?
Result block: active

Query block: Hi, do you know how COc1c(C)c2c(c(O)c1C/C=C(\C)CCC(=O)O)C(=O)OC2 came out in this test?
Result block: active

Query block: Hi, do you know how CCCc1nc(NCc2ccc3c(c2)OCO3)c2nnn(Cc3ccccc3Cl)c2n1 came out in this test?
Result block: active

Query block: Hi, do you know how CC1(C)Cc2nc3sc4c(SCC(=O)NC(c5ccccc5)c5ccccc5)ncnc4c3cc2CO1 came out in this test?
Result block: inactive

Query block: Hi, do you know how N=c1n(CCc2ccccc2)c2ccccc2n1Cc1ccccc1F came out in this test?
Result block: active

Query block: Hi, do you know how CC1CCCCC1NC(=O)/C(C#N)=C/C=C/c1ccccc1[N+](=O)[O-] (stereo unspecified) came out in this test?
Result block: active

Query block: Hi, do you know how CC[C@]1(C(=O)OC)[C@H]2C(=O)N(Cc3ccccc3)C(=O)[C@H]2[C@H]2CN=C(SCc3ccc(C#N)cc3)N21 came out in this test?
Result block: active

Query block: Hi, do you know how O=C(NCCN1CCOCC1)c1ccc(/C=C2\Sc3ccccc3N(Cc3ccc(F)cc3)C2=O)cc1 came out in this test?
Result block: inactive

Query block: Hi, do you know how C=C(C)C(=O)O[C@H]1C/C(C)=C\C(=O)/C=C(\C)[C@H](O)[C@@H]2OC(=O)C(=C)[C@@H]21 came out in this test?
Result block: active

Query block: Hi, do you know how Cc1ccc(-c2csc(NC3OC(=O)c4ccccc43)n2)cc1 (stereo unspecified) came out in this test?
Result block: active

Query block: Hi, do you know how CCNC(=O)c1c(O)c2cccc3c2n(c1=O)CC3 came out in this test?
Result block: active

Query block: Hi, do you know how CCCCC(O)(CCCC)C(=O)NN(C(=O)CCl)c1ccccc1 came out in this test?
Result block: active

Query block: Hi, do you know how O=S(=O)([N-]c1nc2ccccc2nc1-[n+]1ccc(Cc2ccccc2)cc1)c1ccc(Br)s1 came out in this test?
Result block: active

Query block: Hi, do you know how C/C(=N\NC(=O)c1ccccc1F)c1ccccn1 came out in this test?
Result block: active

Query block: Hi, do you know how CCCCN(CCCC)CCC(O)c1cc2c(Cl)cc(Cl)cc2c2cc(C(F)(F)F)ccc12 (stereo unspecified) came out in this test?
Result block: inactive

Query block: Hi, do you know how Cc1ccc(OCCOCCOc2ccc(Br)cc2/C=N\NC(=O)c2ccncc2)cc1 came out in this test?
Result block: active

Query block: Hi, do you know how Cc1cc(CNC(=O)c2cccc([N+](=O)[O-])c2)c2ccccc2n1 came out in this test?
Result block: active

Query block: Hi, do you know how COc1cccc(/C=N/Nc2cc(C)nc(-c3ccccc3O)n2)c1O came out in this test?
Result block: active

Query block: Hi, do you know how NC(N)=Nc1nc(-c2ccccc2)c2cc(Cl)ccc2n1 came out in this test?
Result block: active

Query block: Hi, do you know how Cc1nnnn1/C(=C\c1ccccc1)C(=O)OCC(=O)N1CC2(C)CC1CC(C)(C)C2 (stereo unspecified) came out in this test?
Result block: active

Query block: Hi, do you know how CC(NC(=O)c1ccc(N2CCNCC2)c([N+](=O)[O-])c1)C12CC3CC(CC(C3)C1)C2 (stereo unspecified) came out in this test?
Result block: active

Query block: Hi, do you know how O=C1c2ccccc2C2=Nc3ccccc3SC(c3ccccc3F)C12 (stereo unspecified) came out in this test?
Result block: inactive

Query block: Hi, do you know how CC[C@]1(C(=O)OC)[C@H]2C(=O)N(Cc3ccccc3)C(=O)[C@H]2[C@H]2CN=C(SCc3ccccc3)N21 came out in this test?
Result block: active

Query block: Hi, do you know how COc1cc(OC)c(OC)cc1/C=N/Nc1ncnc2c1[nH]c1ccc(C)cc12 came out in this test?
Result block: inactive

Query block: Hi, do you know how O=C(CCCN1C(=O)/C(=C/c2ccco2)SC1=S)Nc1ccccc1 came out in this test?
Result block: active

Query block: Hi, do you know how COc1cccc(-n2c(SCC(=O)NC3CCCCC3)nc3n[nH]c(C)c3c2=N)c1 came out in this test?
Result block: active

Query block: Hi, do you know how CCCCCCC(=O)N(O)C1CC(=O)N(c2ccccc2)C1=O (stereo unspecified) came out in this test?
Result block: inactive

Query block: Hi, do you know how COC(=O)C1=C(Nc2ccc(C)cc2)C=C(C)C(C(=O)OC)C1c1ccc(F)cc1 (stereo unspecified) came out in this test?
Result block: active

Query block: Hi, do you know how COc1cccc(CNCCc2c[nH]c3ccccc23)c1OCc1ccccc1F came out in this test?
Result block: active

Query block: Hi, do you know how O=C(/C(=C/c1cccc(Cl)c1)c1nc2ccccc2[nH]1)c1ccccc1 came out in this test?
Result block: active

Query block: Hi, do you know how O=C(Nc1ccc(Cl)cc1)Nc1nnc(/C=C/c2ccccc2)s1 came out in this test?
Result block: active

Query block: Hi, do you know how COc1ccc(C(=O)NC2CCCc3c2cnn3-c2cccc(C)c2C)c(OC)n1 (stereo unspecified) came out in this test?
Result block: active

* * *

Target Under Test: Protein Mdm4 (Homo sapiens) + E3 ubiquitin-protein ligase Mdm2 (Homo sapiens) (UniProt O15151+Q00987)
Test Details: Mdm2-MdmX complex disruptors, retested hits, confirmation, luminescence, single concentration (AID 489028)
Experimental Context: Mdm2-MdmX binding, luminescent assay; at 8 µM; hits give high values
About 5,600 (56%) of roughly 10,000 compounds were called active. The set was probably picked from earlier hits. The list is a sample of the results.
Is inhibition at least 40%? Then yes (1). If not, no (0).

Query block: Given the entry O=C(Cc1csc(Nc2nc(=S)[nH]c3ccccc23)n1)NCCCN1CCN(c2cccc(Cl)c2)CC1 , answer whether its inhibition meets or surpasses 40%.
Result block: no (0)

Query block: Given the entry O=C(CC(O)(C(F)(F)F)C(F)(F)F)Nc1ccc(Cl)c(Cl)c1 , answer whether its inhibition meets or surpasses 40%.
Result block: yes (1)

Query block: Given the entry COc1ccc(-c2nc(-c3ccccc3)no2)c(OC)c1 , answer whether its inhibition meets or surpasses 40%.
Result block: yes (1)

Query block: Given the entry CCCC[C@@H]1CN=C(N)N1CCc1cc(C(F)(F)F)cc(C(F)(F)F)c1 , answer whether its inhibition meets or surpasses 40%.
Result block: no (0)

Query block: Given the entry O=C(Cc1ccc(Cl)c(Cl)c1)Nc1ccc(SC(F)F)cc1 , answer whether its inhibition meets or surpasses 40%.
Result block: no (0)

Query block: Given the entry O=C(c1[nH]ncc1-c1ccc(Cl)cc1)C1CO1 (centres undefined) , answer whether its inhibition meets or surpasses 40%.
Result block: yes (1)

Query block: Given the entry O=C(NNc1ccccc1Cl)C(O)(c1cccc(C(F)(F)F)c1)c1cccc(C(F)(F)F)c1 , answer whether its inhibition meets or surpasses 40%.
Result block: no (0)

Query block: Given the entry CC[C@]1(O)C[C@@H]2CN(CCc3c([nH]c4ccccc34)[C@@](C(=O)OC)(c3cc4c(cc3OC)N(C)[C@H]3[C@@](O)(C(=O)OC)[C@H](OC(C)=O)[C@]5(CC)C=CCN6CC[C@]43[C@@H]65)C2)C1 , answer whether its inhibition meets or surpasses 40%.
Result block: yes (1)

Query block: Given the entry Oc1ccccc1C1=NN(c2ccccc2)C(c2ccccc2)C1 (centres undefined) , answer whether its inhibition meets or surpasses 40%.
Result block: no (0)
